- Tested on: HT-29
- Assay notes: Cytotoxicity against human HT-29 cells after 48 hrs by MTT assay
- Assay type: functional, cell-based
- Setup conditions: HT-29, 48 h

# Chem smiles, Display unit, IC50
data = [
    ("COc1ccc(OC)c(-c2nc(C(=O)N[C@@H]3c4cc5c(cc4[C@@H](c4cc(OC)c(OC)c(OC)c4)[C@H]4C(=O)OC[C@@H]43)OCO5)cc3c2[nH]c2ccccc23)c1", "µM", 2.68),
    ("COc1cc([C@@H]2c3cc4c(cc3[C@@H](NC(=O)c3cc5c([nH]c6ccccc65)c(-c5cccc(F)c5)n3)[C@H]3COC(=O)[C@H]23)OCO4)cc(OC)c1OC", "µM", 55.7),
    ("COc1cc([C@@H]2c3cc4c(cc3[C@@H](NC(=O)c3cc5c([nH]c6ccccc65)c(-c5ccccc5)n3)[C@H]3COC(=O)[C@H]23)OCO4)cc(OC)c1OC", "µM", 6.87),
    ("COc1cc([C@@H]2c3cc4c(cc3[C@@H](NC(=O)c3cc5c([nH]c6ccccc65)c(-c5ccc6c(c5)OCO6)n3)[C@H]3COC(=O)[C@H]23)OCO4)cc(OC)c1OC", "µM", 30.6),
    ("COc1ccccc1-c1nc(C(=O)N[C@@H]2c3cc4c(cc3[C@@H](c3cc(OC)c(OC)c(OC)c3)[C@H]3C(=O)OC[C@@H]32)OCO4)cc2c1[nH]c1ccccc12", "µM", 4.3),
    ("COc1cc([C@@H]2c3cc4c(cc3[C@@H](NC(=O)c3cc5c([nH]c6ccccc65)c(-c5ccc(Cl)cc5)n3)[C@H]3COC(=O)[C@H]23)OCO4)cc(OC)c1OC", "µM", 5.77),
    ("COc1ccc(-c2nc(C(=O)N[C@@H]3c4cc5c(cc4[C@@H](c4cc(OC)c(OC)c(OC)c4)[C@H]4C(=O)OC[C@@H]43)OCO5)cc3c2[nH]c2ccccc23)cc1OC", "µM", 14.3),
    ("COc1cc([C@@H]2c3cc4c(cc3[C@@H](NC(=O)c3cc5c([nH]c6ccccc65)c(-c5cccc(Cl)c5)n3)[C@H]3COC(=O)[C@H]23)OCO4)cc(OC)c1OC", "µM", 5.26),
    ("COc1cc([C@@H]2c3cc4c(cc3[C@@H](NC(=O)c3cc5c([nH]c6ccccc65)c(-c5ccc(C)cc5)n3)[C@H]3COC(=O)[C@H]23)OCO4)cc(OC)c1OC", "µM", 20),
    ("COc1cc([C@@H]2c3cc4c(cc3[C@@H](NC(=O)c3cc5c([nH]c6ccccc65)c(-c5cccc6ccccc56)n3)[C@H]3COC(=O)[C@H]23)OCO4)cc(OC)c1OC", "µM", 23),
    ("COc1cc([C@@H]2c3cc4c(cc3[C@@H](NC(=O)c3cc5c([nH]c6ccccc65)c(-c5ccc(C(F)(F)F)cc5)n3)[C@H]3COC(=O)[C@H]23)OCO4)cc(OC)c1OC", "µM", 46.5),
]
